- Test system: TRPC4 (mouse), co-expressed with 5HT1a in HEK293
- Protocol Text: enhancement of serotonin-evoked TRPC4 response – cell-based, second counter screen, HEK293 TRPC4/5HT1a, Fluo-4, counter-screen for TRPC4 potentiator project, confirmation (AID 434979)
- Conditions Used: Fluo-4 calcium flux, at 10 µM, serotonin added at its EC20 dose
Active and inactive are the calls of the source.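 The calls were made as follows: active = signal rise over 3 SD above mean of control wells given weak agonist, in both repeats and first screen; inactive = the rest.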
Choose the fitting class; nothing outside TRUE = active, FALSE = inactive is accepted.

-- ask Test call, this compound: O/N=C/c1cn(-c2ccccc2)nc1-c1ccc2c(c1)OCCO2
-- reply TRUE

-- ask Test call, this compound: O=C(NC1CCCCC1)N1CCN(C(c2ccccc2)c2ccccc2)CC1
-- reply FALSE

-- ask Test call, this compound: Cc1ccc(-c2cc(C(=O)NCCCN3CCCC3)c3ccccc3n2)cc1C
-- reply TRUE

-- ask Test call, this compound: COC(=O)c1ccc(Nc2cc(C)nc3ccccc23)cc1
-- reply FALSE

-- ask Test call, this compound: c1ccc(C(c2nnnn2C2CCCC2)N2CCN(c3ccccc3)CC2)cc1 (stereo not drawn)
-- reply FALSE

-- ask Test call, this compound: O=C(C1CCN(S(=O)(=O)c2cccnc2)CC1)N1CCN(c2ccc(Cl)cc2)CC1
-- reply FALSE

-- ask Test call, this compound: COc1ccc2c(C)cc(N3CCCCCC3)nc2c1
-- reply FALSE

-- ask Test call, this compound: CC(=O)Nc1ccc(S(=O)(=O)N2CCN(CCCOc3cc(C)ccc3C)CC2)cc1
-- reply FALSE

-- ask Test call, this compound: CC12CC3(C)CC(C)(C1)CC(NC(=O)N1CCCC1)(C2)C3
-- reply FALSE

-- ask Test call, this compound: N=c1c(C(=O)NCc2ccc(F)cc2)cc2c(=O)n3ccccc3nc2n1Cc1ccco1
-- reply FALSE

-- ask Test call, this compound: CCCN1C2=NCCN2c2cc(C)c(C)cc21
-- reply FALSE

-- ask Test call, this compound: CCOC(=O)c1cn(Cc2ccccc2)c(C(=O)OC(C)(C)C)c1O
-- reply FALSE

-- ask Test call, this compound: C/C(=C\c1cccc(Cl)c1Cl)C(=O)c1c(C)cc(C)[nH]c1=O
-- reply TRUE

-- ask Test call, this compound: CCCn1c(NCc2ccc(C)o2)nc2ccccc21
-- reply FALSE

-- ask Test call, this compound: Cc1ccn2c(-c3csc(NCc4ccco4)n3)c(C)nc2c1
-- reply FALSE

-- ask Test call, this compound: Cc1ccc(NC(=O)c2cccs2)cc1
-- reply FALSE

-- ask Test call, this compound: CCn1c(=O)c2cc(C(=O)N(C)c3cc(C)ccc3OC)sc2c2ccccc21
-- reply FALSE

-- ask Test call, this compound: CC(=O)c1ccc(N2CCN(C(=O)C3CCN(S(=O)(=O)c4ccc5c(c4)CC(C)N5C(=O)C4CC4)CC3)CC2)cc1 (stereo not drawn)
-- reply TRUE

-- ask Test call, this compound: CCCCn1c2ccccc2c2nnc(SCCN3CCCCC3)nc21
-- reply FALSE

-- ask Test call, this compound: CCOC(=O)C1CCCN(C(=O)CCCn2nnnc2CN2CCOCC2)C1 (stereo not drawn)
-- reply TRUE

-- ask Test call, this compound: O=C(NCC(c1ccco1)N1CCc2ccccc2C1)c1ccc(F)cc1 (stereo not drawn)
-- reply FALSE

-- ask Test call, this compound: CCCOc1ccc(Br)cc1/C=N/O
-- reply FALSE

-- ask Test call, this compound: CC(C)c1nc(CNC(=O)CC2C(=O)NCCN2Cc2ccc(F)cc2Cl)cs1 (stereo not drawn)
-- reply FALSE

====

- Target: Short transient receptor potential channel 6 (Mus musculus) (UniProt Q61143)
- Sequence (Q61143 whole entry, looked up): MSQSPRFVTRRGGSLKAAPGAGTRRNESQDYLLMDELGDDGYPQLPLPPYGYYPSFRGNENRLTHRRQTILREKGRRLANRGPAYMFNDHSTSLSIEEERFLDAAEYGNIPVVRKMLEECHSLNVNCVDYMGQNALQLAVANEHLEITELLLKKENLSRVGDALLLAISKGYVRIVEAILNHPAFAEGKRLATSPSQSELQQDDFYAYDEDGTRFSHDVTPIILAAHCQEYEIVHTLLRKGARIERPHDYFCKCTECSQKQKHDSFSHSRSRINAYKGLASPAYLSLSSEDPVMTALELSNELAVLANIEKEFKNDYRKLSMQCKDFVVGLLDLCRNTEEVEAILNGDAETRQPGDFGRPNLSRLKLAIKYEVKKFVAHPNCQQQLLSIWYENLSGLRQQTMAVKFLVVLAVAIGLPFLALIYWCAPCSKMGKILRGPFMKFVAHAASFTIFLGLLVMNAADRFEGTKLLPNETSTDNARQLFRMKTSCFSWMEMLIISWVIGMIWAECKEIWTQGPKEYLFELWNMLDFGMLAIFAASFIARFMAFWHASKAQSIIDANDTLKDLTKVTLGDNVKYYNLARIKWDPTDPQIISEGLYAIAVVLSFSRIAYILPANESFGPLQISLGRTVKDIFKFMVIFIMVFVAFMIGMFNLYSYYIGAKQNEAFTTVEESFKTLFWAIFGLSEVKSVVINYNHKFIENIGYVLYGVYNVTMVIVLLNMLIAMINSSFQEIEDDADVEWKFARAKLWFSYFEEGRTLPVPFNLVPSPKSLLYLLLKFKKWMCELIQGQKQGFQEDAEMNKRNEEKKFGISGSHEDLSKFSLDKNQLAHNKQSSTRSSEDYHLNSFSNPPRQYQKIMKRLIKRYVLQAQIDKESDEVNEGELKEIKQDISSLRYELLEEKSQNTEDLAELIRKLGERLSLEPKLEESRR
- Protocol Text: TRPC6 opening by TRPC4 activator hits – cell-based, HEK293, membrane potential dye, duplicate, selectivity assay for TRPC4 activator project, confirmation (AID 434950)
- Conditions Used: HEK293 TRPC6, membrane potential fluorescence, at 10 µM; activation
The source made the active and inactive calls.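 How the source made its calls: active means membrane potential signal rise above negative control mean plus 3 SD in both duplicates, also active in the earlier TRPC4 screen; inactive means the rest.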
Property Name: outcome

// solved cases for outcome follow
Compound | Property Name | Endpoint Result
COc1ccc(C(=O)CN2CCN(CCN3C(=O)c4cccc5cccc(c45)C3=O)CC2)cc1 | outcome | inactive
CN(C)CC(CCC(CN(C)C)C(O)(c1ccccc1)c1ccccc1)C(O)(c1ccccc1)c1ccccc1 (stereo not given) | outcome | inactive
CC(CCc1ccc(O)cc1)N(C)CCc1ccccc1 (stereo not given) | outcome | inactive
COc1cc(/C=C2\C(=N)N3N=C(S(C)(=O)=O)SC3=NC2=O)ccc1OC(=O)c1cccs1 | outcome | inactive
c1coc(CN=C2NC(=NCc3ccco3)c3ccccc32)c1 | outcome | inactive
NC(=O)N/N=C1\c2ccccc2-c2c(C(N)=O)cccc21 | outcome | inactive

Now examine the next entry.
Per the record, O=C(Nc1ccc2c(c1)OCO2)c1cnn2cccnc12 has outcome of inactive

====

- Protocol Text: serotonin-gated TRPC4 signal block – cell-based, second counter screen, HEK293 TRPC4/5HT1a, Fluo-4, counter-screen for TRPC4 inhibitor project, confirmation (AID 434978)
- Conditions Used: Fluo-4 calcium flux, at 10 µM, serotonin added to trigger calcium flux
Activity calls are given as the source filed them.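 The calls were made as follows: active = primary screen active whose calcium signal fell more than 3 SD beyond the full-serotonin control mean in both duplicate plates; inactive = the rest.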
Choose the fitting class; nothing outside active, inactive is accepted.

-- ask Test call, this compound: O=C(NCCCN1CCCC1=O)c1ccc(CNS(=O)(=O)c2ccc(F)cc2)cc1
-- reply inactive

-- ask Test call, this compound: Cc1ccc(S(=O)(=O)Nc2ccc(N=Nc3ccc(O)cc3)cc2)cc1
-- reply inactive

-- ask Test call, this compound: Cc1ccc(-n2nc(-c3cccs3)cc2C(=O)NCC2CCCO2)c(C)c1 (stereo not drawn)
-- reply inactive

-- ask Test call, this compound: CCOc1cc(O)c(-c2[nH]ncc2-c2nc(C)cs2)cc1CC
-- reply inactive

-- ask Test call, this compound: Cc1cccc(N2CCN(Cc3ccoc3)CC2)c1C
-- reply active

-- ask Test call, this compound: COc1cc2ccccc2cc1C(=O)NCC(c1cccs1)N(C)C (stereo not drawn)
-- reply inactive

-- ask Test call, this compound: CCCn1c(N)c(C(=O)CSc2n[nH]c(-c3ccc(C)cc3)n2)c(=O)[nH]c1=O
-- reply inactive

-- ask Test call, this compound: OCCN(CCO)c1ncnc2c1sc1nc(N3CCOCC3)c3c(c12)CCCC3
-- reply inactive

-- ask Test call, this compound: CC(C)Cn1c(O)c(N=NC(=O)c2cccc(S(=O)(=O)N3CCCCC3)c2)c2ccccc21
-- reply inactive

-- ask Test call, this compound: O=C(COc1ccccc1-c1ccccc1)NCc1ccco1
-- reply inactive

-- ask Test call, this compound: CN(C)C(CNC(=O)Nc1cccc(Cl)c1)c1cccnc1 (stereo not drawn)
-- reply inactive

-- ask Test call, this compound: Cc1ccccc1N1CC(O)(c2cccs2)[N+]2=C1CCCC2 (stereo not drawn)
-- reply inactive

-- ask Test call, this compound: O=C1COc2ccc(N3C(=O)C=CC3=O)cc2N1
-- reply active

-- ask Test call, this compound: Oc1ccc(Nc2nc(N3CCCC3)c3ccccc3n2)cc1
-- reply active

-- ask Test call, this compound: CC(C)CCNC(=O)CCC(=O)NNc1nc2ccccc2c2nc(-c3ccccc3)nn12
-- reply inactive

-- ask Test call, this compound: CCc1ccccc1NC(=S)N(CCCN(C)C)Cc1cc2cc3c(cc2[nH]c1=O)OCO3
-- reply active

-- ask Test call, this compound: CCCc1noc2c1/C(=N\O)CC(CC(C)SCC)C2 (stereo not drawn)
-- reply active

-- ask Test call, this compound: CCOc1cc(/C=C(\C#N)C(=O)Nc2cccc(C(=O)O)c2)cc(Br)c1OC(=O)c1ccc(OC)cc1
-- reply inactive

-- ask Test call, this compound: CCCN(CCC)CCCNC(=O)c1cc2c(-c3ccc(OC)c(OC)c3)nn(C)c2s1
-- reply inactive

-- ask Test call, this compound: CN1CCN(Cc2nc3ccccc3n2C)CC1CCO (stereo not drawn)
-- reply inactive

-- ask Test call, this compound: CC(=O)N1CC(c2ccccc2)C(c2ccc(Cl)cc2)=N1 (stereo not drawn)
-- reply inactive

-- ask Test call, this compound: COc1ccc(Cl)cc1N/C(N)=N/c1nc(C)cc(C)n1
-- reply active

-- ask Test call, this compound: Cc1cc(N2CCCCC2)nc(NCc2ccccc2)n1
-- reply inactive

====

- Protocol Text: serotonin-gated TRPC4 signal block – cell-based, second counter screen, HEK293 TRPC4/5HT1a, Fluo-4, counter-screen for TRPC4 inhibitor project, confirmation (AID 434978)
- Conditions Used: Fluo-4 calcium flux, at 10 µM, serotonin added to trigger calcium flux
Active and inactive are the calls of the source.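 How the source made its calls: active means primary screen active whose calcium signal fell more than 3 SD beyond the full-serotonin control mean in both duplicate plates; inactive means the rest.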
Choose the fitting class; nothing outside class 1 for active, class 0 for inactive is accepted.

-- ask Test call, this compound: CN1CCN(NC(=O)c2cccc(Br)c2)CC1
-- reply class 0

-- ask Test call, this compound: Cc1ccc(C)c(OCCCCN2CCNCC2)c1C
-- reply class 0

-- ask Test call, this compound: Oc1c(CN2CCCCC2)cc(Br)c2cccnc12
-- reply class 1

-- ask Test call, this compound: NCCNC(=O)c1c(NC(=O)c2ccccc2)sc2c1CCCC2
-- reply class 0

-- ask Test call, this compound: CN1CCN(NC(=O)Nc2cc(Cl)cc(Cl)c2)CC1
-- reply class 0

-- ask Test call, this compound: Cn1nnnc1SCCNCc1ccccc1OCc1ccc(Cl)cc1
-- reply class 1

-- ask Test call, this compound: COc1ccc(/C=C2/SC(=S)N(CCCC(=O)Nc3ccccc3C(=O)O)C2=O)cc1
-- reply class 1

-- ask Test call, this compound: CN(C)CCN1C(=O)C2C(C(=O)Nc3cc(Cl)cc(Cl)c3)C3C=CC2(O3)C1C(=O)NC1CCCCC1 (centres undefined)
-- reply class 0

-- ask Test call, this compound: c1ccc(CN2CCN(Cc3c[nH]c4ccccc34)CC2)cc1
-- reply class 1

-- ask Test call, this compound: CCSc1nnc([C@H](Cc2c[nH]c3ccccc23)NC(=O)OC(C)(C)C)o1
-- reply class 0

-- ask Test call, this compound: CN(C)CCCN(C(=O)c1ccc(S(=O)(=O)N2CCCC2)cc1)c1nc2c(F)cc(F)cc2s1
-- reply class 0

-- ask Test call, this compound: O=C(O)c1cc(NN=C2c3ccccc3-c3ccccc32)ccc1Cl
-- reply class 1

-- ask Test call, this compound: O=C(Nc1c(F)cc(F)cc1Br)c1cc(-c2ccc(O)cc2)on1
-- reply class 0

-- ask Test call, this compound: CC(C)(C)[C@H]1C=C(C(=O)NCc2ccccc2)O[C@@H](OCc2ccc(CO)cc2)C1
-- reply class 0

-- ask Test call, this compound: Cc1cccc(C(=O)NC(=S)NNC(=O)Cc2ccccc2)c1
-- reply class 0

-- ask Test call, this compound: CCN(CC)CCCNC(=O)c1cc2c(-c3ccc(Cl)cc3)nn(C)c2s1
-- reply class 0

-- ask Test call, this compound: CCN(CC)CCn1c2ccccc2c2cnc(N)c(C#N)c21
-- reply class 1

-- ask Test call, this compound: O=C(c1cccc(C(=O)N2CCN(c3ccc(F)cc3)CC2)c1)N1CCN(c2ccc(F)cc2)CC1
-- reply class 1

-- ask Test call, this compound: COc1cc(C(F)(F)F)nc2c(Br)c(C(C)(C)C)nn12
-- reply class 1

-- ask Test call, this compound: COc1ccc(/C=C2/SC(=S)N(NS(=O)(=O)c3ccc(C)cc3)C2=O)cc1
-- reply class 0

-- ask Test call, this compound: COc1ccc(/C=C/C(=O)Oc2cc(O)cc(O)c2)cc1
-- reply class 1

-- ask Test call, this compound: Cc1ccc(C)c(NC(=S)NCC(c2ccccc2)N(C)C)c1 (centres undefined)
-- reply class 0

-- ask Test call, this compound: COC(=O)CC(NC(=S)NC(=O)c1ccccc1)c1ccc(Br)cc1 (centres undefined)
-- reply class 0

-- ask Test call, this compound: N#Cc1c(NC(=O)C2CC(Cl)=CCC2C(=O)O)sc2c1CCCCC2 (centres undefined)
-- reply class 1

-- ask Test call, this compound: Cc1ccc(N(CC(=O)NC2CCCC2)C(=O)CNC(=O)c2cccs2)cc1F
-- reply class 0

-- ask Test call, this compound: COC(=O)[C@@]12CCCCN1[C@H](c1ccc(-c3ccccc3)cc1)[C@@H]1C(=O)N(C)C(=O)[C@@H]12
-- reply class 0

-- ask Test call, this compound: Cc1cccc(N(C(=O)c2snc(C(N)=O)c2N)C(C(=O)NCC2CCCO2)c2ccc3ncccc3c2)c1 (centres undefined)
-- reply class 0

-- ask Test call, this compound: CC(Sc1nc2sc3c(c2c(=O)n1-c1ccccc1)CCCC3)C(=O)O (centres undefined)
-- reply class 0

-- ask Test call, this compound: O=C(CSc1nc2[nH]ncc2c(=O)n1-c1ccccc1Br)NCc1ccccc1Cl
-- reply class 0

-- ask Test call, this compound: COC(=O)[C@H](Cc1ccccc1)NC(=O)c1ccc2ccccc2n1
-- reply class 0

-- ask Test call, this compound: CCN(C(=O)c1cnc(NC(C)C)cc1C(F)(F)F)c1ccc(Cl)cc1Cl
-- reply class 1

-- ask Test call, this compound: COCCn1c(SCc2ccc(F)cc2)nc2ccccc2c1=O
-- reply class 1

-- ask Test call, this compound: Cc1ccc2c(c1)N(C(=O)CCC(=O)Nc1ccccc1Cl)CC(C)O2 (centres undefined)
-- reply class 0

-- ask Test call, this compound: Cc1ccc(NC(=S)N(CCCN(C)C)Cc2cc3cc4c(cc3[nH]c2=O)OCO4)c(C)c1
-- reply class 1

-- ask Test call, this compound: O=C(C[N+]1(CC#Cc2ccccc2)CCCCC1)c1ccc(Cl)cc1
-- reply class 1

-- ask Test call, this compound: CCN1CCN(c2c(Cl)cccc2NC(=O)c2cccs2)CC1
-- reply class 0

-- ask Test call, this compound: CC(C)c1ccccc1NC(=S)NN(Cc1ccccc1)c1ccccc1
-- reply class 0

-- ask Test call, this compound: O=C(c1ccncc1)N1c2ccccc2Sc2ccccc21
-- reply class 0

-- ask Test call, this compound: CCC(=O)Nc1cc(ON=C(C)C)cc([N+](=O)[O-])c1
-- reply class 0

-- ask Test call, this compound: O=C(O)c1nn(CC(=O)N2CCN(c3ncc(C(F)(F)F)cc3Cl)CC2)c(=O)c2ccccc12
-- reply class 0

-- ask Test call, this compound: COc1ccc(OCCN(C)Cc2c(O)ccc3ccccc23)cc1
-- reply class 0

-- ask Test call, this compound: O=C(C1CCCN(Cc2cccc(Cl)c2)C1)N1CCCCC1 (centres undefined)
-- reply class 0

-- ask Test call, this compound: NC(=O)N/N=C1\c2ccccc2-c2c(C(N)=O)cccc21
-- reply class 1

-- ask Test call, this compound: Cn1c(-c2ccccc2)cnc1NCc1ccccc1
-- reply class 1

Origin of the recorded values: PubChem BioAssay
